Tested on: MIA PaCa-2
Assay: Cytotoxicity against human MIAPaCa2 cells assessed as cell growth at 1 uM after 72 hrs by MTT assay relative to untreated control
Type: functional
Conditions: MIA PaCa-2, 72 h, read-out: Activity

compound	u	growth at 1 µM
C/C1=C\CC[C@@]2(C)O[C@@H]2[C@H]2OC(=O)C(CN(C)C)[C@@H]2CC1 (some centres undefined) [DIMETHYLAMINOPARTHENOLIDE]	%	73
C=C1C(=O)O[C@@H]2C3O[C@]3(C)CC/C=C(\C)CC[C@@H]12 (some centres undefined)	%	78
C=C1C(=O)O[C@@H](c2ccc(OC)cc2)[C@H]1C (relative stereo)	%	109
C=C1C(=O)O[C@H](c2ccccc2)[C@H]1c1ccccc1 (relative stereo)	%	30

====

Test system: PANC-1
Assay: Cytotoxicity against human PANC1 cells assessed as cell growth at 1 uM after 72 hrs by MTT assay relative to untreated control
Type: functional
Details: PANC-1, 72 h, read-out: Activity
parameter: growth at 1 µM (%)

molecule	reported value
C=C1C(=O)O[C@@H](c2ccc3ccccc3c2)[C@H]1c1ccccc1 (relative stereo)	98
C=C1C(=O)O[C@H](c2ccccc2)[C@H]1c1ccccc1 (relative stereo)	116
C=C1C(=O)O[C@@H](c2ccccc2)[C@H]1C (relative stereo)	143
C=C1C(=O)O[C@@H]2C3O[C@]3(C)CC/C=C(\C)CC[C@@H]12 (stereo partly drawn)	132
C=C1C(=O)O[C@H](c2ccc(C)cc2)[C@H]1c1ccccc1 (relative stereo)	105
C/C1=C\CC[C@@]2(C)O[C@@H]2[C@H]2OC(=O)C(CN(C)C)[C@@H]2CC1 (stereo partly drawn) [DIMETHYLAMINOPARTHENOLIDE]	117
C=C1C(=O)O[C@H](c2ccc(C(F)(F)F)cc2)[C@H]1c1ccccc1 (relative stereo)	152
C=C1C(=O)O[C@H](c2ccc(OC)cc2)[C@H]1c1ccccc1 (relative stereo)	80
C=C1C(=O)O[C@@H](c2ccc(OC)cc2)[C@H]1C (relative stereo)	130
C=C1C(=O)O[C@@H](c2c(F)c(F)c(F)c(F)c2F)[C@H]1C (relative stereo)	86
C=C1C(=O)O[C@@H](c2ccccc2)[C@H]1c1ccccc1 (relative stereo)	108
C=C1C(=O)O[C@H](c2ccc3ccccc3c2)[C@H]1C (relative stereo)	139
C=C1C(=O)O[C@H](c2ccc3ccccc3c2)[C@H]1c1ccccc1 (relative stereo)	53

====

Collected growth at 1 µM values appear next to each entry.
Test system: MIA PaCa-2
Assay: Cytotoxicity against human MIAPaCa2 cells assessed as cell growth at 1 uM after 72 hrs by MTT assay relative to untreated control
Type: functional
Conditions: MIA PaCa-2, 72 h, read-out: Activity
parameter: growth at 1 µM

compound	reported value
C=C1C(=O)O[C@H](c2ccc(OC)cc2)[C@H]1c1ccccc1 (relative stereo)	54%
C=C1C(=O)O[C@@H](c2c(F)c(F)c(F)c(F)c2F)[C@H]1C (relative stereo)	120%
C=C1C(=O)O[C@@H](c2ccccc2)[C@H]1C (relative stereo)	114%
C=C1C(=O)O[C@H](c2ccc3ccccc3c2)[C@H]1C (relative stereo)	74%
C=C1C(=O)O[C@H](c2ccc3ccccc3c2)[C@H]1c1ccccc1 (relative stereo)	29%

====

Test system: MIA PaCa-2
Test: Cytotoxicity against human MIAPaCa2 cells assessed as cell growth at 1 uM after 72 hrs by MTT assay relative to untreated control
Type: functional
Conditions: MIA PaCa-2, 72 h, read-out: Activity
parameter: growth at 1 µM (%)

molecule	test target	reported value
C=C1C(=O)O[C@H](c2ccc(C(F)(F)F)cc2)[C@H]1c1ccccc1 (relative stereo)	MIA PaCa-2	142
C=C1C(=O)O[C@@H](c2ccc3ccccc3c2)[C@H]1c1ccccc1 (relative stereo)	MIA PaCa-2	125
C=C1C(=O)O[C@H](c2ccc(C)cc2)[C@H]1c1ccccc1 (relative stereo)	MIA PaCa-2	26
C=C1C(=O)O[C@@H](c2ccccc2)[C@H]1c1ccccc1 (relative stereo)	MIA PaCa-2	32
